Kindly supply the reported pIC50 values for the records listed here.
Test system: MCF-7
experiment-notes: Antiproliferative MTT assay, MCF-7
Assay type: cell-based, human
experimental-parameters: Homo sapiens, MCF7, read-out: Antiproliferative activity IC50 ± SEM, MCF-7
Answers are plain numbers, as −log10 of the molar value.

In the examples that follow, each entry is paired with its recorded pIC50.
molecule	measured-result
COc1ccc(N2CCN(CC(=O)Nc3ccc(C4=NN(C(C)=O)C(c5ccc(C)cc5)C4)cc3)CC2)cc1 (stereo not drawn)	4.86
COc1ccc(N2CCN(CC(=O)Nc3ccc(C(=O)C=Cc4ccccc4)cc3)CC2)cc1	4.14

We next turn to a different molecule, shown below.
Provide value of pIC50 for this record tested with MCF-7: CC(=O)N1N=C(c2ccc(NC(=O)CN3CCN(c4ccc(Cl)cc4)CC3)cc2)CC1c1ccc(Cl)cc1Cl (stereo not drawn)
4.15

---

System: MCF-7
experiment-notes: Antiproliferative MTT assay, MCF-7
Assay type: cell-based, human
experimental-parameters: Homo sapiens, MCF7, read-out: Antiproliferative activity IC50 ± SEM, MCF-7
# Yes = IC50 below 20 µM (exclusive); No = IC50 at/above 20 µM

// below: answered molecules
molecule	assigned-class
COc1ccc(N2CCN(CC(=O)Nc3ccc(C(=O)C=Cc4ccc(Br)cc4)cc3)CC2)cc1	No
Cc1ccc(C=CC(=O)c2ccc(NC(=O)CN3CCN(c4ccc(Cl)cc4)CC3)cc2)cc1	No
COc1cc(C2CC(c3ccc(NC(=O)CN4CCN(c5ccc(Cl)cc5)CC4)cc3)=NN2C(C)=O)cc(OC)c1OC (centres unmarked)	No
COc1cc(C=CC(=O)c2ccc(NC(=O)CN3CCN(c4ccc(Cl)cc4)CC3)cc2)cc(OC)c1OC	Yes
O=C(CN1CCN(c2ccc(Cl)cc2)CC1)Nc1ccc(C(=O)C=Cc2ccccc2)cc1	No

State whether 20 µM exceeds IC50 recorded for "COc1ccc(N2CCN(CC(=O)Nc3ccc(C(=O)C=Cc4cc(OC)c(OC)c(OC)c4)cc3)CC2)cc1" .
No

Please determine if COc1ccc(C2CC(c3ccc(NC(=O)CN4CCN(c5ccc(OC)cc5)CC4)cc3)=NN2C(C)=O)cc1 (centres unmarked) is below 20 µM in terms of IC50.
Yes

Please state whether IC50 is below 20 µM for "O=C(CN1CCN(c2ccc(Cl)cc2)CC1)Nc1ccc(C(=O)C=Cc2ccc(Cl)cc2Cl)cc1"
No

---

measurement-target: HER2-TK (Homo sapiens)
Sequence (P04626 676-1255 limits assumed): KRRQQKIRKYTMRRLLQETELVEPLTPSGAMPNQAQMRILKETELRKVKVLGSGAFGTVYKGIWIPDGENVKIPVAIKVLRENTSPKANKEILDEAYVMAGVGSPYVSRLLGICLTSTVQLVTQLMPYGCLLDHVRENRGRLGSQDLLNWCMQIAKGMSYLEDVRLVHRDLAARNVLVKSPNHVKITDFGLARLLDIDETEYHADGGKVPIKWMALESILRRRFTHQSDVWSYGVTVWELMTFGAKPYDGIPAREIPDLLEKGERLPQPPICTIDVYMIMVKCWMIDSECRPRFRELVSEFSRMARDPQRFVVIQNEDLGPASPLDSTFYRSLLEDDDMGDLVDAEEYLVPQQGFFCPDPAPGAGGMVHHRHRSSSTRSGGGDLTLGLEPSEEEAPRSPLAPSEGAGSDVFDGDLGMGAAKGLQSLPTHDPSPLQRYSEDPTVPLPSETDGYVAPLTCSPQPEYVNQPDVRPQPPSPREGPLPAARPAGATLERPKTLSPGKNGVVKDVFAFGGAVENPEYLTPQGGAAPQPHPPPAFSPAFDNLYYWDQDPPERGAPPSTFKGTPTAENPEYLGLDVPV
experiment-notes: HER2 inhibitory assay
Assay type: biochemical
experimental-parameters: HER2 IC50, as printed in text
measured-metric: IC50 (nM)
One number for each entry, in nM.

Recorded IC50 for COc1ccc(N2CCN(CC(=O)Nc3ccc(C4=NN(C(C)=O)C(c5cc(OC)c(OC)c(OC)c5)C4)cc3)CC2)cc1 (stereo not shown) with HER2-TK (Homo sapiens), please?
61

---

Exercise: for every item that follows, state its recorded pIC50.
Tested on: MCF-7
experiment-notes: Antiproliferative MTT assay, MCF-7
Format: cell-based, human
experimental-parameters: Homo sapiens, MCF7, read-out: Antiproliferative activity IC50 ± SEM, MCF-7
Answers are plain numbers, as −log10 of the molar value.

Study these solved cases before continuing.
molecule	measurement-target	measured-metric	measured-result
CC(=O)N1N=C(c2ccc(NC(=O)CN3CCN(c4ccc(Cl)cc4)CC3)cc2)CC1c1ccc(C)cc1 (centres unmarked)	MCF-7	pIC50	4.26
COc1ccc(N2CCN(CC(=O)Nc3ccc(C4=NN(C(C)=O)C(c5ccc(Cl)cc5Cl)C4)cc3)CC2)cc1 (centres unmarked)	MCF-7	pIC50	4.32

// for each molecule in input: emit pIC50
1. O=C(CN1CCN(c2ccc(Cl)cc2)CC1)Nc1ccc(C(=O)C=Cc2ccc(Br)cc2)cc1
2. COc1ccc(N2CCN(CC(=O)Nc3ccc(C4=NN(C(C)=O)C(c5ccc(Br)cc5)C4)cc3)CC2)cc1 (centres unmarked)

1: 4.09; 2: 4.82

For each listed entry, give its pIC50.
1. COc1ccc(N2CCN(CC(=O)Nc3ccc(C4=NN(C(C)=O)C(c5ccco5)C4)cc3)CC2)cc1 (centres unmarked)
2. COc1ccc(N2CCN(CC(=O)Nc3ccc(C(=O)C=Cc4ccco4)cc3)CC2)cc1
3. COc1ccc(N2CCN(CC(=O)Nc3ccc(C(=O)C=Cc4ccc(C)cc4)cc3)CC2)cc1

[5.42, 5.03, 4.18]

---

Test system: MCF-7
experiment-notes: Antiproliferative MTT assay, MCF-7
Format: cell-based, human
experimental-parameters: Homo sapiens, MCF7, read-out: Antiproliferative activity IC50 ± SEM, MCF-7
measured-metric: pIC50
Answers are plain numbers, as −log10 of the molar value.

These solved cases illustrate the format of a correct answer.
compound	measurement-target	pIC50
CC(=O)N1N=C(c2ccc(NC(=O)CN3CCN(c4ccc(Cl)cc4)CC3)cc2)CC1c1ccccc1 (centres unmarked) [5h]	MCF-7	4.07
COc1ccc(N2CCN(CC(=O)Nc3ccc(C4=NN(C(C)=O)C(c5ccccc5)C4)cc3)CC2)cc1 (centres unmarked) [5a]	MCF-7	4.71
COc1ccc(C2CC(c3ccc(NC(=O)CN4CCN(c5ccc(Cl)cc5)CC4)cc3)=NN2C(C)=O)cc1 (centres unmarked) [5j]	MCF-7	4.03
COc1ccc(N2CCN(CC(=O)Nc3ccc(C4=NN(C(C)=O)C(c5cc(OC)c(OC)c(OC)c5)C4)cc3)CC2)cc1 (centres unmarked) [5d]	MCF-7	5.30
CC(=O)N1N=C(c2ccc(NC(=O)CN3CCN(c4ccc(Cl)cc4)CC3)cc2)CC1c1ccco1 (centres unmarked) [5n]	MCF-7	4.62
COc1ccc(C=CC(=O)c2ccc(NC(=O)CN3CCN(c4ccc(Cl)cc4)CC3)cc2)cc1 [4j]	MCF-7	4.37
O=C(CN1CCN(c2ccc(Cl)cc2)CC1)Nc1ccc(C(=O)C=Cc2ccco2)cc1 [4n]	MCF-7	5.16

Tell me the measured pIC50 of COc1ccc(C=CC(=O)c2ccc(NC(=O)CN3CCN(c4ccc(OC)cc4)CC3)cc2)cc1 [4c] , please.
4.55

---

This document collects IC50 values reported for EGFR-TK (Homo sapiens, UniProt P00533).
Give bare numbers, in nM.

molecule	measurement-target	measurement-unit	measured-result
COc1ccc(N2CCN(CC(=O)Nc3ccc(C4=NN(C(C)=O)C(c5ccco5)C4)cc3)CC2)cc1 (centres unmarked)	EGFR-TK (Homo sapiens, UniProt P00533)	nM	2380

Next:
Hello, I am looking for reported IC50 with EGFR-TK (Homo sapiens, UniProt P00533) for COc1ccc(N2CCN(CC(=O)Nc3ccc(C4=NN(C(C)=O)C(c5cc(OC)c(OC)c(OC)c5)C4)cc3)CC2)cc1 (centres unmarked) . Could you help?
209
